# TEST_DESCRIPTION: NCI Yeast Anticancer Drug Screen. Data for the mec2-1 strain (AID 157)
# SETUP_CONDITIONS: S. cerevisiae mec2-1 strain, at 50.0 µM, hits give high values
The panel holds about 79,000 compounds, 15% with a hit somewhere; the sample as a whole holds those more often.
// label = MET if growth inhibition is not less than -10%, otherwise NOT MET

// below: answered molecules
MOLECULE	LABEL
Cc1cc(=O)c(CO)n[nH]1	MET
CCCCCC1CC[N-]CC1.CCCCCC1CC[N-]CC1.N#C[S-].N#C[S-].[Cu]	MET
O=CCCn1[nH]c(=O)ccc1=O	MET
Cc1ccc(Cl)cc1NC(=O)Oc1ccc(C(C)(C)C)cc1Br	MET
O=C(NC(CC(NC(=O)OCc1ccccc1)NC(=O)OCc1ccccc1)NC(=O)OCc1ccccc1)OCc1ccccc1	MET
Nc1cc(=O)[nH]c2ncnn12	NOT MET
CCOC(=O)C(C)(Cc1ccco1)C(=O)OCC	NOT MET
CCCCCOC(=O)CC(c1ccccc1)N1CCCCC1 (centres undefined)	MET

input: Reported growth inhibition reaches at least -10% for COc1ccc2c(ccc3nc(C)[nH]c(=O)c32)c1 ?
output: MET

----------
# TEST_DESCRIPTION: NCI Yeast Anticancer Drug Screen. Data for the bub3 strain (AID 167)
# SETUP_CONDITIONS: S. cerevisiae bub3 mutant strain, at 50.0 µM, hits give high values
# Experimental: Growth inhibition of yeast strains with defined genetic alterations is measured as a screen for potential anti-cancer activity. Selected strains with alterations in DNA damage repair or cell cycle control were exposed to compounds and growth inhibition was measured relative to vehicle treated controls. The strain used in this assay is bub3
Compounds without any hit were thinned out: in the full panel of roughly 79,000, 15% have a hit.
OBSERVATION_TYPE: growth inhibition (%)
Give a bare numeral; the unit % is implied.

Answered cases to consult:
COMPOUND	growth inhibition [%]
CN=C(N)SCCCCCCSC(N)=NC	-3.6
Cc1ccc(C2SC(N)=Nc3c2c(C)nn3C(=O)c2ccccc2O)cc1 (stereo unspecified)	10.2
O=C1NCCN1CCCl	1.65
O=C(N=C1[Se]C(=Nc2ccccc2)C(=Nc2ccccc2)N1c1ccccc1)c1ccccc1	2.75
CCOC(=O)C1CC(=O)c2cc(OC)c(OC)cc2C1c1ccc(OC)c(OC)c1 (stereo unspecified)	13.8

Next compound, growth inhibition to be filled in.
input: For the compound COC(=O)c1cc(OC)c(O)c(OC)c1 , what growth inhibition is on record?
output: 4.05

----------
# TEST_DESCRIPTION: NCI Yeast Anticancer Drug Screen. Data for the sgs1 mgt1 strain (AID 161);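 also: 0% = growth of cultures given vehicle only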
# SETUP_CONDITIONS: S. cerevisiae sgs1 mgt1 strain, at 50.0 µM, hits give high values
This is part of a sample that, as a whole, favours compounds with a hit. Of some 79,000 tested, about 15% had one in any assay.
// label = Satisfied if growth inhibition is not less than 20%, otherwise Not satisfied

COMPOUND	LABEL
COc1ccc2c3c([nH]c2c1)CCN(CCCC(=O)c1ccc(F)cc1)C3	Satisfied
COc1ccc(C(O)CC(O)(C(F)(F)F)C(F)(F)F)cc1 (stereo not given)	Satisfied
CCc1cc(C(C)(C)C)c(O)c(C(C)(C)C)c1	Not satisfied
Cc1cc(N)c(NC2OC(CO)C(O)C2O)cc1C (stereo not given)	Not satisfied
CCCC1(C)OCC(C)([N+](=O)[O-])CO1 (stereo not given)	Not satisfied

input: Reported growth inhibition reaches at least 20% for CCCCCCCCOCC1S(=O)(=O)OCCOS1(=O)=O ?
output: Not satisfied

input: Check CC(=O)NC1C(OC(C)C(=O)NC(C)C(=O)NC(CCC(=O)NCCCCCNc2ccc([N+](=O)[O-])c3[nH]c4ccccc4c(=O)c23)C(N)=O)C(O)C(CO)OC1(C)OCc1ccccc1 (stereo not given) too.
output: Satisfied

input: Check Cc1cc(O)c(C(C)C)cc1N=Cc1ccccc1O too.
output: Not satisfied

input: Check CC12C3CC4C5CC(C(C53)[C@@H]1NCc1ccccc1)C42 (stereo not given in full) too.
output: Not satisfied

input: Check Cc1cc(O)c2c(c1)C[C@@H](O)C1=C2C(=O)c2c(O)ccc(OC3CC(O)C(OC4CC(OC5CCC(OC6CC(O)C(OC7CC(OC8CCC(O)C(C)O8)C(O)C(C)O7)C(C)O6)C(C)O5)C(O)C(C)O4)C(C)O3)c2C1=O (stereo not given in full) too.
output: Satisfied
